# experiment.notes: Particle size distribution by laser particle size analyzer Mastersizer 3000
# Assay type: physicochemical
# settings: dispersed in n-heptane
Please go through the items and note down their Particle size D90 of API.
Answer in μm, number only, no unit symbol.

## Task Particle size D90 of API for Cn1cnc(Cn2c(=O)[nH]/c(=N\c3cc4cn(C)nc4cc3Cl)n(Cc3cc(F)c(F)cc3F)c2=O)n1 [API 11] ?
## Result 42.7

## Task What do you have for Cn1cnc(Cn2c(=O)[nH]/c(=N\c3cc4cn(C)nc4cc3Cl)n(Cc3cc(F)c(F)cc3F)c2=O)n1 [API 9] ?
## Result 10.4

## Task What do you have for Cn1cnc(Cn2c(=O)[nH]/c(=N\c3cc4cn(C)nc4cc3Cl)n(Cc3cc(F)c(F)cc3F)c2=O)n1 [API 17] ?
## Result 65.7

## Task What do you have for Cn1cnc(Cn2c(=O)[nH]/c(=N\c3cc4cn(C)nc4cc3Cl)n(Cc3cc(F)c(F)cc3F)c2=O)n1 [API 8] ?
## Result 40.7

====

# experiment.notes: Particle size distribution by laser particle size analyzer Mastersizer 3000
# Assay type: physicochemical
# settings: dispersed in n-heptane
Please go through the items and note down their Particle size D50 of API.
Entry format: amount then unit.

## Task Particle size D50 of API for Cn1cnc(Cn2c(=O)[nH]/c(=N\c3cc4cn(C)nc4cc3Cl)n(Cc3cc(F)c(F)cc3F)c2=O)n1 [API 11] ?
## Result 20.6 μm

## Task What do you have for Cn1cnc(Cn2c(=O)[nH]/c(=N\c3cc4cn(C)nc4cc3Cl)n(Cc3cc(F)c(F)cc3F)c2=O)n1 [API 9] ?
## Result 8.8 μm

## Task What do you have for Cn1cnc(Cn2c(=O)[nH]/c(=N\c3cc4cn(C)nc4cc3Cl)n(Cc3cc(F)c(F)cc3F)c2=O)n1 [API 17] ?
## Result 35.4 μm

## Task What do you have for Cn1cnc(Cn2c(=O)[nH]/c(=N\c3cc4cn(C)nc4cc3Cl)n(Cc3cc(F)c(F)cc3F)c2=O)n1 [API 4] ?
## Result 23.5 μm

## Task What do you have for Cn1cnc(Cn2c(=O)[nH]/c(=N\c3cc4cn(C)nc4cc3Cl)n(Cc3cc(F)c(F)cc3F)c2=O)n1 [API 16] ?
## Result 38.3 μm

## Task What do you have for Cn1cnc(Cn2c(=O)[nH]/c(=N\c3cc4cn(C)nc4cc3Cl)n(Cc3cc(F)c(F)cc3F)c2=O)n1 [API 7] ?
## Result 22.3 μm

## Task What do you have for Cn1cnc(Cn2c(=O)[nH]/c(=N\c3cc4cn(C)nc4cc3Cl)n(Cc3cc(F)c(F)cc3F)c2=O)n1 [API 12] ?
## Result 8.3 μm

====

# experiment.notes: Particle size distribution by laser particle size analyzer Mastersizer 3000
# Type: physicochemical
# settings: dispersed in n-heptane
parameter: Particle size D90 of API (μm)
Answer in μm, number only, no unit symbol.

## Task Particle size D90 of API for Cn1cnc(Cn2c(=O)[nH]/c(=N\c3cc4cn(C)nc4cc3Cl)n(Cc3cc(F)c(F)cc3F)c2=O)n1 [API 2] ?
## Result 40.1

## Task What do you have for Cn1cnc(Cn2c(=O)[nH]/c(=N\c3cc4cn(C)nc4cc3Cl)n(Cc3cc(F)c(F)cc3F)c2=O)n1 [API 14] ?
## Result 41.3

## Task What do you have for Cn1cnc(Cn2c(=O)[nH]/c(=N\c3cc4cn(C)nc4cc3Cl)n(Cc3cc(F)c(F)cc3F)c2=O)n1 [API 13] ?
## Result 48.9

## Task What do you have for Cn1cnc(Cn2c(=O)[nH]/c(=N\c3cc4cn(C)nc4cc3Cl)n(Cc3cc(F)c(F)cc3F)c2=O)n1 [API 16] ?
## Result 70.5

## Task What do you have for Cn1cnc(Cn2c(=O)[nH]/c(=N\c3cc4cn(C)nc4cc3Cl)n(Cc3cc(F)c(F)cc3F)c2=O)n1 [API 12] ?
## Result 10.9

## Task What do you have for Cn1cnc(Cn2c(=O)[nH]/c(=N\c3cc4cn(C)nc4cc3Cl)n(Cc3cc(F)c(F)cc3F)c2=O)n1 [API 10] ?
## Result 43.4

## Task What do you have for Cn1cnc(Cn2c(=O)[nH]/c(=N\c3cc4cn(C)nc4cc3Cl)n(Cc3cc(F)c(F)cc3F)c2=O)n1 [API 1] ?
## Result 58.6

## Task What do you have for Cn1cnc(Cn2c(=O)[nH]/c(=N\c3cc4cn(C)nc4cc3Cl)n(Cc3cc(F)c(F)cc3F)c2=O)n1 [API 7] ?
## Result 45.5

## Task What do you have for Cn1cnc(Cn2c(=O)[nH]/c(=N\c3cc4cn(C)nc4cc3Cl)n(Cc3cc(F)c(F)cc3F)c2=O)n1 [API 15] ?
## Result 15.8
